Would you kindly list IC50 for each of these molecules?
# assay_system: recombinant human MAO-A (Homo sapiens, UniProt P21397)
# Sequence (P21397 1-527): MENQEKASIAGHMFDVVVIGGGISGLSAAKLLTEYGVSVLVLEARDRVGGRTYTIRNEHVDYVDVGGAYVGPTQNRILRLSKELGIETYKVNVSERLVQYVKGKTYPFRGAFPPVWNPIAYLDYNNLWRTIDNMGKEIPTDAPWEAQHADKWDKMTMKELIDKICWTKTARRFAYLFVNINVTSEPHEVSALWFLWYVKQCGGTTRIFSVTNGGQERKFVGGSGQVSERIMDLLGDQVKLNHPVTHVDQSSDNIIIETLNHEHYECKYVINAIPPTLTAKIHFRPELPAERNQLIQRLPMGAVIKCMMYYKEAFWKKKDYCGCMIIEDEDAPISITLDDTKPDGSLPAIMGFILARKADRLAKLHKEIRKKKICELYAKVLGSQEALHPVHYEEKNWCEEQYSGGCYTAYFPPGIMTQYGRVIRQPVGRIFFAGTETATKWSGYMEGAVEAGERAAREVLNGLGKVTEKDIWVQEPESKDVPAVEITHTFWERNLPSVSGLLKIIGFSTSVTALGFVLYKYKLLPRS
# method: MAO-A inhibition assay (kynuramine substrate)
# Format: biochemical
# recorded_conditions: mean ± SE
Answers are plain numbers, in µM.

# example entries with known answers
> print(dat)
                                   molecule                              assay.system  numeric.value
1  Cc1ccc(/C=C/C(=O)c2ccc(N3CCOCC3)cc2)cc1 [MO4]  recombinant human MAO-A (Homo sapiens, UniProt P21397)           25.8
2  CCc1ccc(/C=C/C(=O)c2ccc(N3CCOCC3)cc2)cc1 [MO6]  recombinant human MAO-A (Homo sapiens, UniProt P21397)            8.7

Attention now shifts to the item below.
Value lookup for IC50; key = O=C(/C=C/c1ccc([N+](=O)[O-])cc1)c1ccc(N2CCOCC2)cc1 [MO7]
7.1

---

# assay_system: AChE (Electrophorus electricus, UniProt O42275)
# Sequence (O42275 24-633): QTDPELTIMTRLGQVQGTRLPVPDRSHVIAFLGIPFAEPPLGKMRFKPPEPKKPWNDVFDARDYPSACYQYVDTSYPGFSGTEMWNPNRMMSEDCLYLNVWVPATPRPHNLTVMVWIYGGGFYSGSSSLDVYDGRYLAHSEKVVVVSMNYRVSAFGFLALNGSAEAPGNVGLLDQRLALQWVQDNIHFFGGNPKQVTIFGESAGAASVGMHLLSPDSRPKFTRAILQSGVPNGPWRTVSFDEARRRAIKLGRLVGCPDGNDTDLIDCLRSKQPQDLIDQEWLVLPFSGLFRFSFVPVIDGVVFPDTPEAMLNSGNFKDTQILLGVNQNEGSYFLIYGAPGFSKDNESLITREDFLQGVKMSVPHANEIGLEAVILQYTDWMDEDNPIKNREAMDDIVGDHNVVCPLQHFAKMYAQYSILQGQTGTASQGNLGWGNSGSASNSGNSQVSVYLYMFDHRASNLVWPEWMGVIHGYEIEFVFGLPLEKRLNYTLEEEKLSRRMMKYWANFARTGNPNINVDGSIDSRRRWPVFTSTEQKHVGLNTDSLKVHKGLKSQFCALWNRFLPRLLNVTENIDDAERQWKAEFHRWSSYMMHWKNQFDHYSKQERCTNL
# method: AChE inhibition assay (modified Ellman method, ATCI)
# Type: biochemical
# recorded_conditions: 15 min pre-incubation; mean ± SE
recorded_metric: IC50 (µM)
One number for each entry, in µM.

> print(dat)
                                   compound                              assay.system  numeric.value
1  O=C(/C=C/c1ccccc1)c1ccc(N2CCOCC2)cc1 [MO1]  AChE (Electrophorus electricus, UniProt O42275)           16.1

Kindly consider the entry below.
Can you look up the measured IC50 of CN(C)c1ccc(/C=C/C(=O)c2ccc(N3CCOCC3)cc2)cc1 [MO5] for me?
6.1

---

# assay_system: UniProt:P27338
# Sequence (P27338 whole entry): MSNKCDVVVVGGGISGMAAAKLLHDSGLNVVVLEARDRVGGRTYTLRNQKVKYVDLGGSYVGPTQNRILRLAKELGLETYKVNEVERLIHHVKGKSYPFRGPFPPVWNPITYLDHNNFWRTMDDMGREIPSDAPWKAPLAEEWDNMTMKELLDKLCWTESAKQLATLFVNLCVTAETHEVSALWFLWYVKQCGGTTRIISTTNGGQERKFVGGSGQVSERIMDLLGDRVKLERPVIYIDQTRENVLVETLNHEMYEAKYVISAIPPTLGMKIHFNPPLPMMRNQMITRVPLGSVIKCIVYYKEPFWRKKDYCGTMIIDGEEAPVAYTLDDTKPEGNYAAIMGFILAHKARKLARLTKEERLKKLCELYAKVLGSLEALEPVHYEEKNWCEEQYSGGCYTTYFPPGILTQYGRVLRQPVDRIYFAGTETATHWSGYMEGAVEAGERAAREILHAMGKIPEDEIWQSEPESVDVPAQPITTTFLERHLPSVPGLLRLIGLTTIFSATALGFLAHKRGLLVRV
# method: MAO-B inhibition assay (benzylamine substrate)
# Format: biochemical
# recorded_conditions: selectivity for MAO-B over MAO-A
I'd be grateful if you could share measured SI = IC50 of MAO-A/IC50 of MAO-B for these entries.

Reference set (3 entries):
> print(dat)
                           structure.smiles  result
1  O=C(/C=C/c1ccc(Cl)cc1)c1ccc(N2CCOCC2)cc1  >125.0
2  COc1ccc(/C=C/C(=O)c2ccc(N3CCOCC3)cc2)cc1   >39.6
3   O=C(/C=C/c1ccc(O)cc1)c1ccc(N2CCOCC2)cc1  > 57.1

// moving on: another record for SI = IC50 of MAO-A/IC50 of MAO-B
Look up SI = IC50 of MAO-A/IC50 of MAO-B: O=C(/C=C/c1ccc(Br)cc1)c1ccc(N2CCOCC2)cc1
>111.1
